- assayed_target: recombinant human ALK5 (TGF-βR1) protein (Homo sapiens, UniProt P36897)
- procedure_summary: Biochemical ALK5 (TGF-βR1) assay to measure pKi (LANCE Ultra ULight kinase assay)
- reported_conditions: apparent pKi, converted from pIC50 by Cheng-Prusoff
pKi: −log10 of the molar value.
Consider the following molecules; for each one, report its pKi.

molecule | pKi
Cc1cccc(-c2nccc(Nc3ccnc(Nc4ccc(N5CCC(N(C)C)CC5)cc4)n3)n2)n1 [Compound 394] | 9.50 to 10.40

For every record below, what is its pKi?
1. Cc1cccc(-c2nccc(Nc3ccnc(Nc4nc(C(=O)OCC5CNC5)cs4)n3)n2)n1 [Compound 256]
2. Fc1ccc(-c2nccc(Nc3ccnc(Nc4ccc(N5CCOCC5)cc4)n3)n2)c(F)c1 [Compound 35]
3. Cc1cccc(-c2nccc(Nc3ccnc(Nc4cc(C(=O)OC5CCNCC5)cs4)n3)n2)n1 [Compound 85]

["8.50 to 9.40", "7.50 to 8.40", "9.50 to 10.40"]

Please give pKi for each item listed below.
1. CN(C)C1CCN(c2ccc(Nc3nccc(Nc4ccnc(-c5cc(Cl)ccc5F)n4)n3)cc2)CC1 [Compound 415]
2. Cc1cccc(-c2nccc(Nc3ccnc(Nc4ccc(N5CCC(C(=O)OC6CCNC6)CC5)cc4)n3)n2)n1 (centres unmarked) [Compound 101]
3. Cc1cccc(-c2nccc(Nc3ccnc(Nc4ccccc4)n3)n2)n1 [Compound 43]
4. Cc1cccc(-c2nccc(Nc3ccnc(Nc4ccnc(C(=O)O)c4)n3)n2)n1 [Compound 610]

9.50 to 10.40
9.50 to 10.40
8.50 to 9.40
9.50 to 10.40

* * *

- System: TGF-β-stimulated SMAD3 phosphorylation in BEAS-2B cells
- procedure_summary: Cellular ALK5 potency assay, inhibition of TGF-β stimulated pSMAD3 formation in BEAS-2B cells
- Type: cell-based
- reported_conditions: Homo sapiens, pSMAD3, TGF-β 10 ng/mL, read-out: BEAS2B pIC50 (converted)
measured_metric: IC50

Take a look at these entries with their results.
compound | result
CNCc1ccc(Nc2nccc(Nc3ccnc(-c4cccc(C)n4)n3)n2)cc1 [Compound 503] | 25.1 to 158 nM
Cc1cccc(-c2nccc(Nc3ccnc(Nc4ccc(CN5C[C@@H](C)N[C@@H](C)C5)cc4)n3)n2)n1 [Compound 240] | 25.1 to 158 nM
Cc1cccc(-c2nccc(Nc3ccnc(Nc4ccc(CN5CCCC(C(=O)NC6CCNCC6)C5)cc4)n3)n2)n1 (centres unmarked) [Compound 320] | 25.1 to 158 nM
Cc1cccc(-c2nccc(Nc3ccnc(Nc4ccc(N5CCCNCC5)cc4)n3)n2)n1 [Compound 196] | 25.1 to 158 nM
Cc1cccc(-c2nccc(Nc3ccnc(Nc4ccc(NCC5CNC5)cc4)n3)n2)n1 [Compound 537] | 25.1 to 158 nM

// batch mode: one IC50 value per listed entry
1. COc1ncc(Nc2nccc(Nc3ccnc(-c4cccc(C)n4)n3)n2)cc1NS(C)(=O)=O [Compound 20]
2. Cc1cccc(-c2nccc(Nc3ccnc(Nc4ccc(NS(=O)(=O)C5CCNC5)cc4)n3)n2)n1 (centres unmarked) [Compound 413]
3. Cc1cccc(-c2nccc(Nc3ccnc(Nc4csc(C(=O)NCC5(CO)CNC5)c4)n3)n2)n1 [Compound 378]

1: ≤ 20 nM; 2: 200 to 1260 nM; 3: 25.1 to 158 nM

* * *

Record form. Attribute: IC50. Fill in for each entry.
- Tested on: TGF-β-stimulated SMAD3 phosphorylation in BEAS-2B cells
- procedure_summary: Cellular ALK5 potency assay, inhibition of TGF-β stimulated pSMAD3 formation in BEAS-2B cells
- Type: cell-based
- reported_conditions: Homo sapiens, pSMAD3, TGF-β 10 ng/mL, read-out: BEAS2B pIC50 (converted)

Here are 6 molecules together with their reported answers.
molecule | measured_metric | result
COC(=O)CC1CNCCN1c1ccc(Nc2nccc(Nc3ccnc(-c4cccc(C)n4)n3)n2)cc1 (stereo not drawn) | IC50 | 25.1 to 158 nM
Cc1cccc(-c2nccc(Nc3ccnc(Nc4ccc(NCCN5C[C@@H](C)N[C@@H](C)C5)cc4)n3)n2)n1 | IC50 | 25.1 to 158 nM
Cc1cccc(-c2nccc(Nc3ccnc(Nc4ccc(C(=O)OC[C@@H]5CCCNC5)nc4)n3)n2)n1 | IC50 | 25.1 to 158 nM
Cc1cccc(-c2nccc(Nc3ccnc(Nc4ccc(CN5CC6(CCOC6)C5)cc4)n3)n2)n1 | IC50 | 25.1 to 158 nM
Cc1cccc(-c2nccc(Nc3ccnc(Nc4cccc(CN5CC6CCC(C5)N6)c4)n3)n2)n1 | IC50 | 25.1 to 158 nM
Cc1cccc(-c2nccc(Nc3ccnc(Nc4ccc(Cl)c(CO)c4)n3)n2)n1 | IC50 | 25.1 to 158 nM

Dear colleague, could you send me IC50 for each of the items below? Thanks.
1. Cc1cccc(-c2nccc(Nc3ccnc(Nc4ccc(NCC5(O)CNC5)cc4)n3)n2)n1
2. Cc1cccc(-c2nccc(Nc3ccnc(Nc4ccc(CN5CCC[C@@H](C(=O)OCC6CN(C)C6)C5)cc4)n3)n2)n1
3. Cc1cccc(-c2nccc(Nc3ccnc(Nc4ccc(S(=O)(=O)N5CCN(CCO)CC5)cc4)n3)n2)n1
4. COCCOc1ccc(Nc2nccc(Nc3ccnc(-c4cccc(C)n4)n3)n2)cc1
5. Cc1cccc(-c2nccc(Nc3ccnc(Nc4cccc(C(=O)O[C@H]5CCN(C)C5)c4)n3)n2)n1
6. Cc1cccc(-c2nccc(Nc3ccnc(Nc4csc(C(=O)OCCN5CCC[C@H](N)C5)c4)n3)n2)n1
7. Cc1cccc(-c2nccc(Nc3ccnc(Nc4ncc(C5=CCNCC5)s4)n3)n2)n1
8. COc1cc(N2CCOCC2)ccc1Nc1nccc(Nc2ccnc(-c3cccc(C)n3)n2)n1

1: 25.1 to 158 nM; 2: 25.1 to 158 nM; 3: 25.1 to 158 nM; 4: 25.1 to 158 nM; 5: 200 to 1260 nM; 6: 25.1 to 158 nM; 7: 25.1 to 158 nM; 8: 200 to 1260 nM

Please state IC50 for every molecule in the list that follows.
1. COC(=O)c1ccc(Nc2nccc(Nc3nc(-c4cccc(C)n4)ncc3C(=O)OC)n2)cc1
2. Cc1cccc(-c2nccc(Nc3ccnc(Nc4ccc(CN5CCN(Cc6ccccc6)CC5)cc4)n3)n2)n1
3. Cc1cccc(-c2nccc(Nc3ccnc(Nc4ccc(CN5CC(C(=O)O[C@@H]6CCN(C)C6)C5)cc4)n3)n2)n1
4. Cc1cccc(-c2nc(Nc3ccnc(Nc4ccc(NC(=O)C5CCNC5)cc4)n3)c3cccn3n2)n1 (stereo not drawn)
5. Cc1cccc(-c2nccc(Nc3ccnc(Nc4cc(C(=O)O)cs4)n3)n2)n1
6. Cc1cccc(-c2nccc(Nc3ccnc(Nc4ccc(S(=O)(=O)N(C)C5CCNCC5)cc4)n3)n2)n1
7. Cc1cccc(-c2nccc(Nc3ccnc(Nc4ccc(CN5[C@H](C)CNC[C@@H]5C)cc4)n3)n2)n1
8. Cc1cccc(-c2nccc(Nc3ccnc(Nc4ccc(N5CCNCC5)c(Cl)c4)n3)n2)n1

1: 200 to 1260 nM; 2: 25.1 to 158 nM; 3: 25.1 to 158 nM; 4: 25.1 to 158 nM; 5: 200 to 1260 nM; 6: 25.1 to 158 nM; 7: 25.1 to 158 nM; 8: 25.1 to 158 nM

Dear reader, for each entry below, please note its IC50.
1. Cc1cccc(-c2nccc(Nc3ccnc(Nc4ccc(N5CCC(N6CCN(C)CC6)CC5)cc4)n3)n2)n1
2. Cc1cccc(-c2nccc(Nc3ccnc(Nc4cccc(C(=O)OCC5CNC5)c4)n3)n2)n1
3. CNC1CCN(S(=O)(=O)c2ccc(Nc3nccc(Nc4ccnc(-c5cccc(C)n5)n4)n3)cc2)CC1
4. CNCCN1CCN(c2ccc(Nc3nccc(Nc4ccnc(-c5cccc(C)n5)n4)n3)cc2)CC1
5. Cc1cccc(-c2nccc(Nc3ccnc(Nc4ccc(CN5CCC[C@H](C(=O)O)C5)cc4)n3)n2)n1
6. Cc1cccc(-c2nccc(Nc3ccnc(Nc4ccc5c(c4)CC(N)C5)n3)n2)n1 (stereo not drawn)
7. Cc1cccc(-c2nccc(Nc3ccnc(Nc4ccc(C5CNCCN5)cc4)n3)n2)n1 (stereo not drawn)
8. CN1CCN(C2CCN(c3ccc(Nc4nccc(Nc5ccnc(-c6cc(Cl)c(F)cc6F)n5)n4)cc3)CC2)CC1

["25.1 to 158 nM", "25.1 to 158 nM", "25.1 to 158 nM", "200 to 1260 nM", "200 to 1260 nM", "25.1 to 158 nM", "25.1 to 158 nM", "200 to 1260 nM"]

* * *

- assayed_target: recombinant human ALK5 (TGF-βR1) protein (Homo sapiens, UniProt P36897)
- Sequence (P36897 34-503): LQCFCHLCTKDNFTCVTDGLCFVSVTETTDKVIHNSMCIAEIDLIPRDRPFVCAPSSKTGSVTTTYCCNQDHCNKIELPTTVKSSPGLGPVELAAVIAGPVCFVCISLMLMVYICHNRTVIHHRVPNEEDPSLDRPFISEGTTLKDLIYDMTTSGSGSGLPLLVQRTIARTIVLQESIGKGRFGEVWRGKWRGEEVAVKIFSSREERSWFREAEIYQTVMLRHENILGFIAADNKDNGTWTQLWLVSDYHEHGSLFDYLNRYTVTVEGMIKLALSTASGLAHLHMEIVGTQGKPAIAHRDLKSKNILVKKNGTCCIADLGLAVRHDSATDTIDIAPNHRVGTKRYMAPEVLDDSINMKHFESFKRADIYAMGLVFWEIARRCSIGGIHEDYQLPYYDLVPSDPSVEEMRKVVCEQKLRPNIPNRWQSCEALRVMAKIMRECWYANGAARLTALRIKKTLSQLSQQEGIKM
- procedure_summary: Biochemical ALK5 (TGF-βR1) assay to measure pKi (LANCE Ultra ULight kinase assay)
- reported_conditions: apparent pKi, converted from pIC50 by Cheng-Prusoff
pKi: −log10 of the molar value.
Task for the reader: assign each of the following compounds its reported pKi.

compound | pKi
Fc1ccc(Cl)cc1-c1ncc(C2CC2)c(Nc2ccnc(Nc3ccc(N4CCNCC4)cc3)n2)n1 | 9.50 to 10.40

Below are some compounds; for each one, tell me its pKi.
1. Cc1cccc(-c2nccc(Nc3ccnc(Nc4ccc(N5CCOCC5)c(F)c4)n3)n2)n1
2. Cc1cccc(-c2nccc(Nc3ccnc(Nc4ccc(N5CCN(CC6CNC6)CC5)cc4)n3)n2)n1
3. Cc1cccc(-c2nccc(Nc3ccnc(Nc4ccc(C(=O)NC5CNC5)cc4)n3)n2)n1
4. Cc1cccc(-c2nccc(Nc3ccnc(Nc4ccc(CN5CC[C@@H](O)C5)cc4)n3)n2)n1

9.50 to 10.40
9.50 to 10.40
9.50 to 10.40
≥ 10.50

For each of the items listed, what is its pKi?
1. Cc1cccc(-c2nccc(Nc3ccnc(Nc4ncc(C(=O)OC[C@@H]5CCNC5)s4)n3)n2)n1
2. Cc1cccc(-c2nccc(Nc3ccnc(Nc4ccc(Cl)c(CN5CCNCC5)c4)n3)n2)n1
3. Cc1cccc(-c2nccc(Nc3ccnc(Nc4cccc(NC(=O)C5(O)CNC5)c4)n3)n2)n1
4. Cc1cccc(-c2nccc(Nc3ccnc(Nc4ccc(C(=O)O[C@H](C)C5CCNCC5)nc4)n3)n2)n1
5. Cc1cccc(-c2nccc(Nc3ccnc(Nc4ccc(N5CCC(N)C5)cc4)n3)n2)n1 (stereo not drawn)
6. Cc1cccc(-c2nccc(Nc3ccnc(Nc4ccc(CN5CCC[C@@H](C(=O)O)C5)cc4)n3)n2)n1

1. 7.50 to 8.40
2. 9.50 to 10.40
3. 9.50 to 10.40
4. 9.50 to 10.40
5. 9.50 to 10.40
6. 9.50 to 10.40

Can you give me pKi for all of these, one by one?
1. Cc1cccc(-c2nccc(Nc3ccnc(Nc4ccc(CN5CCCC(C(=O)OC6CNC6)C5)cc4)n3)n2)n1 (stereo not drawn)
2. Cc1cccc(-c2nccc(Nc3ccnc(Nc4ccc(CN5CCC[C@@H](C(=O)O[C@H]6CCN(C)C6)C5)cc4)n3)n2)n1
3. Cc1cccc(-c2nccc(Nc3ccnc(Nc4ccc(-c5c(C)noc5C)cc4)n3)n2)n1
4. Cc1cccc(-c2nccc(Nc3ccnc(Nc4ccc(N5CCNC(C)C5)cc4)n3)n2)n1 (racemic)

1: 9.50 to 10.40; 2: 9.50 to 10.40; 3: 8.50 to 9.40; 4: 9.50 to 10.40
